Listed here: items and their measured IC50.
- MEASURED TARGET: Integrin alpha-V/beta-5 (Homo sapiens, UniProt P06756+P18084)
- PROTOCOL NOTES: Binding affinity against integrin alpha V-beta5 in enzyme linked immunosorbent assay (ELISA)
Give the value, in units of µM, as a plain number.

COc1ccc(C[C@@H]2NC(=O)[C@H](CC(=O)O)NC(=O)CNC(=O)[C@H](CCCNC(=N)N)NC(=O)[C@@H]3CCCN3C(=O)[C@H](CC(N)=O)NC(=O)[C@@H](NC(C)=O)CSSC[C@@H](C(N)=O)NC(=O)[C@H](CCC(=O)O)NC2=O)cc1 :: 9.47
COc1ccc(C[C@@H]2NC(=O)[C@H](CC(=O)O)NC(=O)CNC(=O)[C@H](CCCNC(=N)N)NC(=O)[C@@H]3CCCN3C(=O)[C@H](CC(N)=O)NC(=O)[C@@H](NC(C)=O)CSSC[C@@H](C(N)=O)NC(=O)[C@H](CCCN)NC2=O)cc1 :: 7.7
CCOc1ccc(C[C@@H]2NC(=O)[C@H](CC(=O)O)NC(=O)CNC(=O)[C@H](CCCN=C(N)N)NC(=O)[C@@H]3CCCN3C(=O)[C@H](CC(N)=O)NC(=O)[C@@H](NC(C)=O)CSSC[C@@H](C(N)=O)NC(=O)[C@H](CCCN=C(N)N)NC2=O)cc1 :: 8.4

Please look at the following compound next.
Return reported IC50; argument: `N=C(N)NCCC[C@H](NC(=O)[C@@H]1CSSC2(CCCCC2)[C@H](NC(=O)[C@@H](N)CCCNC(=N)N)C(=O)NCC(=O)N[C@@H](Cc2c[nH]cn2)C(=O)N[C@@H](CCCNC(=N)N)C(=O)NCC(=O)N[C@@H](CC(=O)O)C(=O)N[C@@H](Cc2ccc(I)cc2)C(=O)N[C@@H](CCCNC(=N)N)C(=O)N1)C(=O)O` 4.03

* * *

Entries annotated with measured IC50
- MEASURED TARGET: Integrin alpha-5/beta-1 (Homo sapiens, UniProt P05556+P08648)
- Sequence (P05556 21-798 limits assumed): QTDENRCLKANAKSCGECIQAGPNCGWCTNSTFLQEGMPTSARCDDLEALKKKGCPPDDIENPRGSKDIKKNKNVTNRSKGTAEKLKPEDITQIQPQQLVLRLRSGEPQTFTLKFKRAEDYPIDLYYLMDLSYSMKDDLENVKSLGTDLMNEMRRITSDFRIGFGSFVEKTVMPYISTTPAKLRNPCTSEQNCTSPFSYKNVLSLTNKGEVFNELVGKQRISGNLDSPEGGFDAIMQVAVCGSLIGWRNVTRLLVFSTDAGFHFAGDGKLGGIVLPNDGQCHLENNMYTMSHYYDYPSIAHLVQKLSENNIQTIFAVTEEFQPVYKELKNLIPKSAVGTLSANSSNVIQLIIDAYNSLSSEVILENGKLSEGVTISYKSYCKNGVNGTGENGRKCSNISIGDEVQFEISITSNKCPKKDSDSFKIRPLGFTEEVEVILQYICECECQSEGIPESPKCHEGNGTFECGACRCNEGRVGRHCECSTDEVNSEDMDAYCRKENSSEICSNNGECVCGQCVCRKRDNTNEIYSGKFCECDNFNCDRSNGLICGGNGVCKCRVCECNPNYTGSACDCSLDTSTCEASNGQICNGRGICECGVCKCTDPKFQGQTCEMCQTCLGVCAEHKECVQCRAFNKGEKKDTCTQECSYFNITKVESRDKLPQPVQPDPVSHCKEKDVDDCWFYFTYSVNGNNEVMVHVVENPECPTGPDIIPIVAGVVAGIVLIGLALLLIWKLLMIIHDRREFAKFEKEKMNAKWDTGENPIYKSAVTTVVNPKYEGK
- Sequence (P08648 42-894 limits assumed): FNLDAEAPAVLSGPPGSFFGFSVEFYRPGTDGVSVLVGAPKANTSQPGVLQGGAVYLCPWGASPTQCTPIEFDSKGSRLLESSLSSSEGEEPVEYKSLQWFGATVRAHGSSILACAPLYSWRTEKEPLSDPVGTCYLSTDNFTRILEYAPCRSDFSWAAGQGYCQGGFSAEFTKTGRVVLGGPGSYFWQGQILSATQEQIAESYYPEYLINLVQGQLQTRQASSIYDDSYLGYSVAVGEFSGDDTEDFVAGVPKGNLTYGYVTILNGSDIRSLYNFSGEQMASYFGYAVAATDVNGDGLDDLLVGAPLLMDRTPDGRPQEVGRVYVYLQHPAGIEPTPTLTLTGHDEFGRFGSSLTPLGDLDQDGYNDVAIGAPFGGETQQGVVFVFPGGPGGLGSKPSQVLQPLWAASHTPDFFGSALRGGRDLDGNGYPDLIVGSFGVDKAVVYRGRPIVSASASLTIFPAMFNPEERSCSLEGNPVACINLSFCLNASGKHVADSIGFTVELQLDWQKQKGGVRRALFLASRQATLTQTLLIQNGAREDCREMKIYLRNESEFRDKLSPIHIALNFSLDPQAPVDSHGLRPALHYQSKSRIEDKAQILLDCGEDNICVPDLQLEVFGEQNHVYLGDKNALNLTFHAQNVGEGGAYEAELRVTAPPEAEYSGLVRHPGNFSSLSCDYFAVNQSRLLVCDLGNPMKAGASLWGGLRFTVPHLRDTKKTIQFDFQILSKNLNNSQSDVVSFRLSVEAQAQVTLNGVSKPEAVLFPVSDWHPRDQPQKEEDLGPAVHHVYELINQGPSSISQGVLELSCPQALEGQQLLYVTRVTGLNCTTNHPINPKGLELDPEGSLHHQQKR
- Sequence (P08648 895-1049 limits assumed): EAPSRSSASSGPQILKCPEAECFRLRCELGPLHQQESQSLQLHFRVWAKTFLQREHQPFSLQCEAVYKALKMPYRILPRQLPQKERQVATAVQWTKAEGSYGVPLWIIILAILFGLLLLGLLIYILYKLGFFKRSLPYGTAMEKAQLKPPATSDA
- PROTOCOL NOTES: Binding affinity against integrin alpha5-beta1 in enzyme linked immunosorbent assay (ELISA)
Where a SMILES comes first, the peptide text is derived from it. Bridges are numbered along the chain shown (N, C = ends).
# number only, unit µM dropped from output

Consider the worked cases shown below.
CCCCOc1ccc(C[C@@H]2NC(=O)[C@H](CC(=O)O)NC(=O)CNC(=O)[C@H](CCCNC(=N)N)NC(=O)[C@@H]3CCCN3C(=O)[C@H]([C@@H](C)CC)NC(=O)[C@@H](NC(C)=O)CSSC[C@@H](C(N)=O)NC(=O)[C@H](CCCNC(=N)N)NC2=O)cc1 :: 6
CCOc1ccc(C[C@@H]2NC(=O)[C@H](CC(=O)O)NC(=O)CNC(=O)[C@H](CCCN=C(N)N)NC(=O)[C@@H]3CCCN3C(=O)[C@H](CC(N)=O)NC(=O)[C@@H](NC(C)=O)CSSC[C@@H](C(N)=O)NC(=O)[C@H](CCCN=C(N)N)NC2=O)cc1 :: 10
NC(N)=NCCC[C@H](NC(=O)[C@@H]1CSSC2(CCCCC2)[C@H](NC(=O)[C@@H](N)CCCN=C(N)N)C(=O)NCC(=O)N[C@@H](Cc2c[nH]cn2)C(=O)N[C@@H](CCCN=C(N)N)C(=O)NCC(=O)N[C@@H](CC(=O)O)C(=O)N[C@@H](Cc2ccc3ccccc3c2)C(=O)N[C@@H](CCCN=C(N)N)C(=O)N1)C(=O)O :: 7.72
COc1ccc(C[C@@H]2NC(=O)[C@H](CC(=O)O)NC(=O)CNC(=O)[C@H](CCCNC(=N)N)NC(=O)[C@H](Cc3c[nH]cn3)NC(=O)CNC(=O)[C@@H](NC(=O)[C@@H](N)CCCNC(=N)N)C3(CCCCC3)SSC[C@@H](C(=O)N[C@@H](CCCNC(=N)N)C(=O)O)NC(=O)[C@H](CCCNC(=N)N)NC2=O)cc1 :: 0.98

# input for lookup
Give the measured IC50 of CC[C@H](C)[C@@H]1NC(=O)[C@@H](NC(C)=O)CSSC[C@@H](C(N)=O)NC(=O)[C@H](CCCN=C(N)N)NC(=O)[C@H](Cc2ccccc2)NC(=O)[C@H](CC(=O)O)NC(=O)CNC(=O)[C@H](CCCN=C(N)N)NC(=O)[C@@H]2CCCN2C1=O (Ac-CIPRGDFRC-NH2; disulfide 1-9) . 2.1

* * *

- MEASURED TARGET: Integrin alpha-IIb/beta-3 (Homo sapiens, UniProt P05106+P08514)
- Sequence (P05106 27-788 limits assumed): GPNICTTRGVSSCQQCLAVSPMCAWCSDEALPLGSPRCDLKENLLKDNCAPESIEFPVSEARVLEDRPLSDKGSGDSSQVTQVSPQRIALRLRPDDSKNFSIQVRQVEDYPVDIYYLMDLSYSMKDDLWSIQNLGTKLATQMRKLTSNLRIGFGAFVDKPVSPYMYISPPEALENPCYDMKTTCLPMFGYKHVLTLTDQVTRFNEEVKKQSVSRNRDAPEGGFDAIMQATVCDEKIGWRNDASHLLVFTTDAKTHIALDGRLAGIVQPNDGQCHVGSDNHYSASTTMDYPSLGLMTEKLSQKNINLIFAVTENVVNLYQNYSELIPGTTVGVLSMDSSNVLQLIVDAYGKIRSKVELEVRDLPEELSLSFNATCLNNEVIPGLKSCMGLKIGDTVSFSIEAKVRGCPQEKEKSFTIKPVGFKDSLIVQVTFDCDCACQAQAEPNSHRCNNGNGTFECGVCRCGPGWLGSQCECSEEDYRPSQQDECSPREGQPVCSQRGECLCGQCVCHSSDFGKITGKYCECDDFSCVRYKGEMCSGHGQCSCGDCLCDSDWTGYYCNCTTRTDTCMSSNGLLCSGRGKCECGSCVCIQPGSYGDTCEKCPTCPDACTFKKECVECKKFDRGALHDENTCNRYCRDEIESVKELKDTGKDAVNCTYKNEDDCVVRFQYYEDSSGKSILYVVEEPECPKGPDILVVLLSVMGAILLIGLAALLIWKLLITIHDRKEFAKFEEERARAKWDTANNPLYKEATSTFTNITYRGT
- Sequence (P08514 32-887 limits assumed): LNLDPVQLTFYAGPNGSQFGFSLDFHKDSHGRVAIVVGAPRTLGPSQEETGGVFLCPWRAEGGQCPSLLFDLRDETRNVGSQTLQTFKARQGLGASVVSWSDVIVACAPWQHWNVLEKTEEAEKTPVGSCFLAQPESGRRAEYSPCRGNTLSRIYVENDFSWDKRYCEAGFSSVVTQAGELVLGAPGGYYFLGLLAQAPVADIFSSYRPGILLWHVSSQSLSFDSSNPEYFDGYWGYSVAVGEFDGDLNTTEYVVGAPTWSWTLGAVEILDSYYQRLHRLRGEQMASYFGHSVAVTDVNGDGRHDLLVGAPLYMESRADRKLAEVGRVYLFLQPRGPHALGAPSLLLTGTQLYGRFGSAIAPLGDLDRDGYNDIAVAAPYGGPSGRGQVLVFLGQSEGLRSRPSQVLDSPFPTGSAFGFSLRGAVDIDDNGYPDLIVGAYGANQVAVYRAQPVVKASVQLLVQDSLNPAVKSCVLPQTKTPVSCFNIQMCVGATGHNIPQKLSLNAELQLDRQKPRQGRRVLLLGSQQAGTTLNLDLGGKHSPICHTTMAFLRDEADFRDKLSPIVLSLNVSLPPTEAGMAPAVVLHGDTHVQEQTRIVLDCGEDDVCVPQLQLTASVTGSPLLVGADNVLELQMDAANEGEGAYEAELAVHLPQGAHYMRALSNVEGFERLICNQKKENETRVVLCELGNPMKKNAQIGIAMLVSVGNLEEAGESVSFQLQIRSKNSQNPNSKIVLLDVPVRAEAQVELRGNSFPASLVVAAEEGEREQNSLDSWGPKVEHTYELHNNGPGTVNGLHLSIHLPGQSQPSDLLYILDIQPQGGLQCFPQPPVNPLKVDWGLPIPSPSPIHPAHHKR
- Sequence (P08514 891-1039 limits assumed): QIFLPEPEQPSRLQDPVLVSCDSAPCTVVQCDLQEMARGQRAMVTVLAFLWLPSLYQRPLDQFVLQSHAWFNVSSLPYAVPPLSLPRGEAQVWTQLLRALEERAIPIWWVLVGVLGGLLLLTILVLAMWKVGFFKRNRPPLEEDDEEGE
- PROTOCOL NOTES: Binding affinity against integrin alpha 2b-beta 3 in enzyme linked immunosorbent assay (ELISA)
Attribute: pIC50
Units for pIC50: none; it is -log10 of a concentration expressed in mol/L.

CCCCOc1ccc(C[C@@H]2NC(=O)[C@H](CC(=O)O)NC(=O)CNC(=O)[C@H](CCCNC(=N)N)NC(=O)[C@@H]3CCCN3C(=O)[C@H]([C@@H](C)CC)NC(=O)[C@@H](NC(C)=O)CSSC[C@@H](C(N)=O)NC(=O)[C@H](CCCNC(=N)N)NC2=O)cc1 :: 7.80

Could you now look at the following molecule, please?
Dear colleague, I am looking for the recorded pIC50 of the following molecule: `CC(C)C[C@@H]1NC(=O)[C@H](CC(=O)O)NC(=O)CNC(=O)[C@H](CCCNC(=N)N)NC(=O)[C@H](Cc2c[nH]cn2)NC(=O)CNC(=O)[C@H](NC(=O)[C@@H](N)CCCNC(=N)N)C(C)(C)SSC[C@@H](C(=O)N[C@@H](CCCNC(=N)N)C(=O)O)NC(=O)[C@H](CCCNC(=N)N)NC1=O` 6.82

* * *

- MEASURED TARGET: Integrin alpha-IIb/beta-3 (Homo sapiens, UniProt P05106+P08514)
- PROTOCOL NOTES: Binding affinity against integrin alpha 2b-beta 3 in enzyme linked immunosorbent assay (ELISA)
*1 amine or outer side, *2 acyl side, *3 side chain or, on linkers, in order; H or OH if unused. Where a SMILES comes first, the peptide text is derived from it. Bridges are numbered along the chain shown (N, C = ends). X1 = O=C(CC1(S[*:2])CCCCC1)[*:1]
MEASURED PROPERTY: log10 IC50 (log10 of the value in µM)
Heads up, the numbers here are log10 of IC50 in µM units.

CCOc1ccc(C[C@@H]2NC(=O)[C@H](CC(=O)O)NC(=O)CNC(=O)[C@H](CCCN=C(N)N)NC(=O)[C@@H]3CCCN3C(=O)[C@H](CC(N)=O)NC(=O)[C@@H](NC(C)=O)CSSC[C@@H](C(N)=O)NC(=O)[C@H](CCCN=C(N)N)NC2=O)cc1 :: -2.40
CC(C)C[C@@H]1NC(=O)[C@H](CC(=O)O)NC(=O)CNC(=O)[C@H](CCCNC(=N)N)NC(=O)[C@H](Cc2c[nH]cn2)NC(=O)CNC(=O)CC2(CCCCC2)SSC[C@@H](C(=O)N[C@@H](C)C(=O)O)NC(=O)[C@H](CCCNC(=N)N)NC1=O (GHRGDLRCA-OH; linker N-8 via X1) :: -1.70
NC(N)=NCCC[C@H](NC(=O)[C@@H]1CSSC2(CCCCC2)[C@H](NC(=O)[C@@H](N)CCCN=C(N)N)C(=O)NCC(=O)N[C@@H](Cc2c[nH]cn2)C(=O)N[C@@H](CCCN=C(N)N)C(=O)NCC(=O)N[C@@H](CC(=O)O)C(=O)N[C@@H](Cc2ccccc2)C(=O)N[C@@H](CCCN=C(N)N)C(=O)N1)C(=O)O :: -1.40
NC(N)=NCCC[C@H](NC(=O)[C@@H]1CSSC2(CCCCC2)[C@H](NC(=O)[C@@H](N)CCCN=C(N)N)C(=O)NCC(=O)N[C@@H](Cc2c[nH]cn2)C(=O)N[C@@H](CCCN=C(N)N)C(=O)NCC(=O)N[C@@H](CC(=O)O)C(=O)N[C@@H](c2ccccc2)C(=O)N[C@@H](CCCN=C(N)N)C(=O)N1)C(=O)O :: -1.70
CC(C)C[C@@H]1NC(=O)[C@H](CC(=O)O)NC(=O)CNC(=O)[C@H](CCCNC(=N)N)NC(=O)[C@H](Cc2c[nH]cn2)NC(=O)CNC(=O)[C@H](NC(=O)CN)C(C)(C)SSC[C@@H](C(=O)N[C@@H](C)C(=O)O)NC(=O)[C@H](CCCNC(=N)N)NC1=O (stereo in doubt; 2) :: -0.82

Look up log10 IC50: `CC[C@H](C)[C@@H]1NC(=O)[C@@H](NC(C)=O)CSSC[C@@H](C(N)=O)NC(=O)[C@H](CCCN=C(N)N)NC(=O)[C@H](Cc2ccc([N+](=O)[O-])cc2)NC(=O)[C@H](CC(=O)O)NC(=O)CNC(=O)[C@H](CCCN=C(N)N)NC(=O)[C@@H]2CCCN2C1=O` -0.37

Which log10 IC50 reading was recorded for the compound `CCCCOc1ccc(C[C@@H]2NC(=O)[C@H](CC(=O)O)NC(=O)CNC(=O)[C@H](CCCNC(=N)N)NC(=O)[C@H](Cc3c[nH]cn3)NC(=O)CNC(=O)[C@@H](NC(=O)[C@@H](N)CCCNC(=N)N)C3(CCCCC3)SSC[C@@H](C(=O)N[C@@H](CCCNC(=N)N)C(=O)O)NC(=O)[C@H](CCCNC(=N)N)NC2=O)cc1` ? -1.52

Look at this compound and give its reported log10 IC50. `CC(C)C[C@@H]1NC(=O)[C@H](CC(=O)O)NC(=O)CNC(=O)[C@H](CCCNC(=N)N)NC(=O)[C@H](Cc2c[nH]cn2)NC(=O)CNC(=O)[C@@H](NC(=O)[C@@H](N)CCCNC(=N)N)C2(CCCC2)SSC[C@@H](C(=O)N[C@@H](CCCNC(=N)N)C(=O)O)NC(=O)[C@H](CCCNC(=N)N)NC1=O` -1.52

Need log10 IC50, item `CC[C@H](C)[C@@H]1NC(=O)[C@H](NC(C)=O)C(C)(C)SSC[C@@H](C(N)=O)NC(=O)[C@H](CCCNC(=N)N)NC(=O)[C@H](Cc2ccc(OC)cc2)NC(=O)[C@H](CC(=O)O)NC(=O)CNC(=O)[C@H](CCCNC(=N)N)NC(=O)[C@@H]2CCCN2C1=O` -2.70
